Recorded values, source patent US20250197387A1.

# study-target: BCL-XL (Homo sapiens)
# Construct: endogenous in cells; host or cells: MOLT-4
# Sequence (Q07817 whole entry): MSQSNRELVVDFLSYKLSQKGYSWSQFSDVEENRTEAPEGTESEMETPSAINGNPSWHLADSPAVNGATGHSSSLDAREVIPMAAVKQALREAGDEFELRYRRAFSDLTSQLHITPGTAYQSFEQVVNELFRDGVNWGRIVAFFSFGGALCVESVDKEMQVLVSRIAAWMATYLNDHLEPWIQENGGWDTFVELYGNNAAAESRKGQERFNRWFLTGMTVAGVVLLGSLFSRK
# test-description: Bcl-xL ELISA degradation in MOLT-4 cells, 6 h
# Assay type: cell-based
# measurement-parameters: read-out: Bcl-xL ELISA in MOLT-4 degradation 6 h: Mean external-Abs DC50
parameter-measured: DC50

For orientation, consider the following solved cases.
compound="C#Cc1ccc(CNC(=O)[C@@H]2C[C@@H](O)CN2C(=O)[C@@H](NC(=O)CCNCCS(=O)(=O)NC(=O)c2nc(N3CCc4cccc(C(=O)Nc5nc6cccnc6s5)c4C3)ccc2-c2cnn(CC3CCCCC3)c2C)C(C)(C)C)cc1 [I-375]" experimental_result="10 to 100 nM"
compound="C#Cc1ccc([C@H](COC)NC(=O)[C@@H]2C[C@@H](O)CN2C(=O)[C@@H](NC(=O)CCCCCS(=O)(=O)NC(=O)c2nc(N(C)c3cc(C)c(Nc4nc5ccccc5s4)nn3)ccc2-c2cnn(CC34CC5CC(CC(C5)C3)C4)c2C)C(C)(C)C)cc1 [I-476]" experimental_result="< 10 nM"
compound="Cc1ncsc1-c1ccc(CNC(=O)[C@@H]2C[C@H](O)CN2C(=O)[C@@H](NC(=O)C2(F)CC2)C(C)(C)C)c(OCCCCCS(=O)(=O)NC(=O)c2nc(N3CCc4cccc(C(=O)Nc5nc6ccccc6s5)c4C3)ccc2-c2cnn(CC34CC5CC(CC(C5)C3)C4)c2C)c1 [I-290]" experimental_result="100 to 500 nM"

Problem: Look up DC50: Cc1ncsc1-c1ccc(CNC(=O)[C@@H]2C[C@@H](O)CN2C(=O)[C@@H](NC(=O)C2(F)CC2)C(C)(C)C)c(CCCN2CCN(CC[C@H](CSc3ccccc3)Nc3ccc(S(=O)(=O)NC(=O)c4ccc(N5CCN(CC6=C(c7ccc(Cl)cc7)CCC(C)(C)C6)CC5)cc4)cc3S(=O)(=O)C(F)(F)F)CC2)c1 [I-211]
Solution: > 1000 nM
